Where these numbers come from: the supplement of paper PMC12645437

Target: T1, CRBN, Q96SW2;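 further: pooled lentiviral library of zinc finger degron-EGFP fusions in mCherry-positive Jurkat cells, FACS-sorted after compound exposure, with degron abundance counted by next-generation sequencing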
T1 chain: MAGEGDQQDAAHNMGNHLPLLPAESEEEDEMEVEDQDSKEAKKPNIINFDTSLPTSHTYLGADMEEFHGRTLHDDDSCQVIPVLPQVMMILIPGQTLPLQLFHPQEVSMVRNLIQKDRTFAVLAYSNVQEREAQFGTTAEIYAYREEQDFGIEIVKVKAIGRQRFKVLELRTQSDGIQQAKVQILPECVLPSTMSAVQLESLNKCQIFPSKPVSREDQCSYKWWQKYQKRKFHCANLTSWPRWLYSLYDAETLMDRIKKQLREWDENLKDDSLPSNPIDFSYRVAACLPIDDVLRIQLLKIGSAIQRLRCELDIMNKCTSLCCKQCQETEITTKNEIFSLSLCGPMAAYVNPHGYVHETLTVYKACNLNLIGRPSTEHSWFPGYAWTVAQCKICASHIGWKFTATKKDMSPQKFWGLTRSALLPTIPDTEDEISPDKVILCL
Experiment: log2 fold change of degron read counts, EGFP-low vs EGFP+ sorted cells (limma voom), compound-induced degradation; higher = more compound-induced degradation of the degron-EGFP fusion; degrons are variants of IKZF1/3 zinc finger 2; compound dose not given here
Conditions: Jurkat; 18 h; compound: thalidomide
The full ranking holds about 8,300 sequences; the median of “log2 fold change of degron read counts, EGFP-low vs EGFP+ sorted cells (limma voom), compound-induced degradation” is about -1.1, and the highest 2% start at about 3.2. The list comes from a sample in which the highest values are over-represented; it also holds close analogues and randomly drawn sequences.
endpointLabel: log2 fold change of degron read counts
# output: bare number, no unit

May I ask what log2 fold change of degron read counts has been recorded for FRCPICGANFTQKGNLLRHIKL [46F_47R_49P_50I_52G_53A_54N_55F_67L_, Q9UKT9] ?
1.57

Consider the sequence FFCPICGANFTQKGNLLRHIKL [46F_47F_49P_50I_52G_53A_54N_55F_67L_, Q9UKT9] and give its measured log2 fold change of degron read counts.
1.33

# get_value(readout='log2 fold change of degron read counts', item= FNCNQCGAKFTQKGNLLRHIKL [46F_47N_49N_50Q_52G_53A_54K_55F_67L_, Q9UKT9] )
-1.99
